Target: Her2 exon 20 YVMA insertion (A775_G776ins YVMA) (Homo sapiens, UniProt P04626, INS775YVMA)
Sequence (P04626 with tags, fused parts or gaps INS775YVMA): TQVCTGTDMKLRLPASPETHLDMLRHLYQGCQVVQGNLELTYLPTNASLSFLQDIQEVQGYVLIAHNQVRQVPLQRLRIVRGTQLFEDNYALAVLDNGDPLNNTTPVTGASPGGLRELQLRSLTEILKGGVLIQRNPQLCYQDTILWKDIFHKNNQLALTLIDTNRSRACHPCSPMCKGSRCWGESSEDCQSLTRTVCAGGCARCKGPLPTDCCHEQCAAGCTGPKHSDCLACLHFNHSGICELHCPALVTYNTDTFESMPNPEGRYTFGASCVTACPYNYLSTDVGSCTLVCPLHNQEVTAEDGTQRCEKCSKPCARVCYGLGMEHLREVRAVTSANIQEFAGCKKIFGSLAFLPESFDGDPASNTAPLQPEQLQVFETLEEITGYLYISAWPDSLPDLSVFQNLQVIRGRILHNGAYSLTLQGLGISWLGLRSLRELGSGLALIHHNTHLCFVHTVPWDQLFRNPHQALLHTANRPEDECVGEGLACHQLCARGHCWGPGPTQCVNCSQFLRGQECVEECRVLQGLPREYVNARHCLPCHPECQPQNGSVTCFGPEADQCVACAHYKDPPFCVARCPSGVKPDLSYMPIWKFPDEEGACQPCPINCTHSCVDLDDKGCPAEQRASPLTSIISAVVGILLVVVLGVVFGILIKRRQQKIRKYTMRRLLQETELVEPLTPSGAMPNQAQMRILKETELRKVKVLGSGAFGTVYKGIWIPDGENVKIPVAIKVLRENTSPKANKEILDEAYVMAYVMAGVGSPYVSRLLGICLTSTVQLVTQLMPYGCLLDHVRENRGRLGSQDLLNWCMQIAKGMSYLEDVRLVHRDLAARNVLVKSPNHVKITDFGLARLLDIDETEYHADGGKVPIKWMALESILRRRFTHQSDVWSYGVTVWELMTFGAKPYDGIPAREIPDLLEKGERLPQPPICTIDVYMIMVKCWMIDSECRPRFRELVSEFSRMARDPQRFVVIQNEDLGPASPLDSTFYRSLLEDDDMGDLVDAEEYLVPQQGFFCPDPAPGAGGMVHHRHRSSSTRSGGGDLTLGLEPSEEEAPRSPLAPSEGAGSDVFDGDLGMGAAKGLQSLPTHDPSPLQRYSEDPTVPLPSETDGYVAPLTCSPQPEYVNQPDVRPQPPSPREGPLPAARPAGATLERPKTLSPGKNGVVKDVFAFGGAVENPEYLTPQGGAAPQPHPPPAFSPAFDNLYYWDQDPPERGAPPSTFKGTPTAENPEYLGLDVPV
Assay: Ba/F3-Her2 Exon20 YVMA cell anti-proliferative assay (CellTiter 96 MTS, 72 h)
Settings: Ba/F3-Her2 Exon20 YVMA cells
result.type: IC50

Log: Her2 exon 20 YVMA insertion (A775_G776ins YVMA) (Homo sapiens, UniProt P04626, INS775YVMA), compound C=CC(=O)Nc1cc(Nc2ncc(C(CC)OC)c(-c3cn4c5c(cccc35)CCC4)n2)c(OC)cc1N(C)CCN(C)C (stereo not drawn) , IC50 = 100 to 500 nM

Log: Her2 exon 20 YVMA insertion (A775_G776ins YVMA) (Homo sapiens, UniProt P04626, INS775YVMA), compound C=CC(=O)Nc1cc(Nc2ncc(Cl)c(-c3cn4c5c(cccc35)CCC4)n2)c(Cl)cc1N(C)CCN(C)C , IC50 = 100 to 500 nM

Log: Her2 exon 20 YVMA insertion (A775_G776ins YVMA) (Homo sapiens, UniProt P04626, INS775YVMA), compound C=CC(=O)Nc1cc(Nc2ncc(C#N)c(-c3cn4c5c(cccc35)CCC4)n2)c(OC)cc1N1CC[C@@H](N(C)C)C1 , IC50 = 100 to 500 nM

Log: Her2 exon 20 YVMA insertion (A775_G776ins YVMA) (Homo sapiens, UniProt P04626, INS775YVMA), compound C=CC(=O)Nc1cc(Nc2ncc(-c3ccnn3C)c(-c3cn4c5c(cccc35)CCC4)n2)c(OC)cc1N(C)CCN(C)C , IC50 = < 100 nM

Log: Her2 exon 20 YVMA insertion (A775_G776ins YVMA) (Homo sapiens, UniProt P04626, INS775YVMA), compound C=CC(=O)Nc1cc(Nc2ncc(C(=O)NCCOC)c(-c3cn4c5c(cccc35)CCC4)n2)c(OC)cc1N(C)CCN(C)C , IC50 = 500 to 1000 nM

Log: Her2 exon 20 YVMA insertion (A775_G776ins YVMA) (Homo sapiens, UniProt P04626, INS775YVMA), compound C=CC(=O)Nc1cc(Nc2ncc(OC)c(-c3cn4c5c(cccc35)CCC4)n2)c(OC)cc1N(C)CCN(C)C , IC50 = 100 to 500 nM

Log: Her2 exon 20 YVMA insertion (A775_G776ins YVMA) (Homo sapiens, UniProt P04626, INS775YVMA), compound C=CC(=O)Nc1cc(Nc2ncc(C(=O)O)c(-c3cn4c5c(cccc35)CCC4)n2)c(OC)cc1N(C)CCN(C)C , IC50 = > 1000 nM

Log: Her2 exon 20 YVMA insertion (A775_G776ins YVMA) (Homo sapiens, UniProt P04626, INS775YVMA), compound C=CC(=O)Nc1cc(Nc2ncc(CCC(O)CC)c(-c3cn4c5c(cccc35)CCC4)n2)c(OC)cc1N(C)CCN(C)C (stereo not drawn) , IC50 = < 100 nM

Log: Her2 exon 20 YVMA insertion (A775_G776ins YVMA) (Homo sapiens, UniProt P04626, INS775YVMA), compound C=CC(=O)Nc1cc(Nc2nccc(-c3c(N4CCC(OC)C4)n4c5c(cccc35)CCC4)n2)c(OC)cc1N(C)CCN(C)C (stereo not drawn) , IC50 = 100 to 500 nM
